B1: library; numbered along this chain (parent)
chain: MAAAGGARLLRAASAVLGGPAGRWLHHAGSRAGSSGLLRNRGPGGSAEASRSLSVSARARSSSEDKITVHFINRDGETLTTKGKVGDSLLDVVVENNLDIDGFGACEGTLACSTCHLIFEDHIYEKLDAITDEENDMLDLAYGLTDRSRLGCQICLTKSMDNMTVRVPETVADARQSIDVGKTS

variants of: B1; test: scaled log2 fold change in cell abundance, elesclomol vs control (0 = silent mean, 1 = nonsense mean) (scaled log2 ratio); higher = higher viability under elesclomol (loss of FDX1 cuproptosis function); conditions: with ABC1 FDX1 KO; elesclomol 5 nM; glucose 10 mM; 14 days;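 note: variant abundance is its share of total variant reads in each endpoint sample, from next-generation sequencing of the integrated ORF PCR-amplified out of genomic DNA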
Where scaled log2 fold change equals or exceeds 0.05, the correct label is Satisfied; where it does not, the label is Not satisfied.

Observe how each entry below is paired with its result.
| variant identifier | group |
| --- | --- |
| L98Y | Not satisfied |
| H70P | Satisfied |
| L90C | Satisfied |
| A32E | Satisfied |
| K126G | Satisfied |
| T109M | Not satisfied |
| Q153C | Not satisfied |
| L110E | Satisfied |
| S35P | Not satisfied |
| A105M | Not satisfied |

As a next step, examine the variant that follows.
In: API: above_or_equal(metric=scaled log2 fold change, cutoff=0.05) for item "Y124W"
Out: Not satisfied

Just for reference, the supplement of paper PMC12855868 is where these values come from.
